These data points were gathered from patent US11434239B2.

Listed compounds paired with reported inhibition at 3 µM
biological target: hERG (Homo sapiens); construct: expressed in transfected cells; test: hERG inhibition, IKr current, patch clamp in HEK cells stably transfected with the hERG clone; assay type: cell-based; settings: human, HEK cells stably transfected with hERG, pH 7.4, 3 μM; mean of two trials; read-out: Percent Inhibition Mean (%) (IKr current)
Sequence (Q12809 whole entry): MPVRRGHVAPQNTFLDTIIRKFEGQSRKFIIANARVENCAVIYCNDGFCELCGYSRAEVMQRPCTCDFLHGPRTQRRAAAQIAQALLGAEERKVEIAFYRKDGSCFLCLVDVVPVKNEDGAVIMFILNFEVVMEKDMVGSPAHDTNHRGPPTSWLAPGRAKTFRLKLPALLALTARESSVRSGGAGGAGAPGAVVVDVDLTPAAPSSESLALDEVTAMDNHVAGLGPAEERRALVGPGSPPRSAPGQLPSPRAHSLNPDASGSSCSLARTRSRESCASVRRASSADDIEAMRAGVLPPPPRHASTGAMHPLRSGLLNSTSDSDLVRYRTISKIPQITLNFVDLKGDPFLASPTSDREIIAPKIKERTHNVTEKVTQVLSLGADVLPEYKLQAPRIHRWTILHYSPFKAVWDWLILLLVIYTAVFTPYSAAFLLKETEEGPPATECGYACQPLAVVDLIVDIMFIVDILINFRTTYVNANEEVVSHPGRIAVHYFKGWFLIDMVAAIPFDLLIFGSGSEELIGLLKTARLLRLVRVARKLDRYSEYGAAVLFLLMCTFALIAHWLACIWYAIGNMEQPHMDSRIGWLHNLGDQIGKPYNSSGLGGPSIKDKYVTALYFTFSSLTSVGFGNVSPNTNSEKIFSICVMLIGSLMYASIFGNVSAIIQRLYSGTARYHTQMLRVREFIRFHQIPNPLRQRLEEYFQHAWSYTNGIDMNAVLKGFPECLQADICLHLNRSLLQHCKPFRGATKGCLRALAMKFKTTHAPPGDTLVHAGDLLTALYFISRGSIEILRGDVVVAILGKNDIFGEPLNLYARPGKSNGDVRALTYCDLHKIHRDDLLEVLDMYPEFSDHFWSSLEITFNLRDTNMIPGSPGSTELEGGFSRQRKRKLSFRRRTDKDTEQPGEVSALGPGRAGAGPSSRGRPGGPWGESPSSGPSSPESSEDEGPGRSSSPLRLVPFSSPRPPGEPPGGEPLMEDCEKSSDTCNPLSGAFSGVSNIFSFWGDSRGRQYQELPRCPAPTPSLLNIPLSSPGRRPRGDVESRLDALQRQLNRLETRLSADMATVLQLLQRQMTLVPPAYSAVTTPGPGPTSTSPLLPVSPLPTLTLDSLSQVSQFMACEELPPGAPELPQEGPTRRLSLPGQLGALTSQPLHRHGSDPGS
ASSAY_METRIC: inhibition at 3 µM (%)

- COMPOUND: "CN1c2ccccc2C(O)C2CN(Cc3ccccc3)CCC21 (stereo not drawn) [Ia-1]"
  ASSAY_METRIC: "inhibition at 3 µM"
  UNIT_SPEC: "%"
  MEAS_VALUE: 21.9
- COMPOUND: "Cn1c2c(c(=O)c3ccccc31)CN(Cc1ccccc1)CC2 [Compound I-1]"
  ASSAY_METRIC: "inhibition at 3 µM"
  UNIT_SPEC: "%"
  MEAS_VALUE: 20.9
- COMPOUND: "O=c1c2c([nH]c3cc(F)c(F)cc13)CCN(Cc1ccccc1)C2 [Ib-22]"
  ASSAY_METRIC: "inhibition at 3 µM"
  UNIT_SPEC: "%"
  MEAS_VALUE: 15.3

---

biological target: CYP3A4 (Homo sapiens); construct: premixing appropriate volumes of buffer, microsomes and substrate; from tissue; assay: CYP inhibition, microsomes; assay type: in vitro ADME; settings: CYP3A4^a, numeric bound, read-out: CYP IC50 CYP3A4^a
Sequence (P08684 whole entry): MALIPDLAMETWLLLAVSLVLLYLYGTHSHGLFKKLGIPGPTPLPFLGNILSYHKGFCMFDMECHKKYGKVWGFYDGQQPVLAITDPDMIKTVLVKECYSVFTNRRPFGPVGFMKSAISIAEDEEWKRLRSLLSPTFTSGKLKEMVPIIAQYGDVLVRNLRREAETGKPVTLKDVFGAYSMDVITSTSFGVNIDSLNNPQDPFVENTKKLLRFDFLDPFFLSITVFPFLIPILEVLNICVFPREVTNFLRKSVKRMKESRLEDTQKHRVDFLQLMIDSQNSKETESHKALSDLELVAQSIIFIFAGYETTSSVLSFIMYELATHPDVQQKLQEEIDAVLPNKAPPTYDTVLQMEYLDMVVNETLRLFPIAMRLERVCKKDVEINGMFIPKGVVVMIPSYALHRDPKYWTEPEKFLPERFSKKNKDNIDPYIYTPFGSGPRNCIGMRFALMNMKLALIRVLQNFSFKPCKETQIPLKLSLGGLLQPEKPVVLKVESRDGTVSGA
pIC50: −log10 of the molar value.
ASSAY_METRIC: pIC50

- MOLECULE_SMILES: "O=c1c2c([nH]c3cc(F)c(F)cc13)CCN(Cc1ccccc1)C2"
  ASSAY_METRIC: "pIC50"
  MEAS_VALUE: "< 4.90"

---

test: Microsomal stability (intrinsic clearance study); type: in vitro ADME; conditions: human liver microsomes, 0.5 mg/mL protein; read-out: Microsomal stability (T½ min) Human

- MOLECULE: "O=c1c2c([nH]c3cc(F)c(F)cc13)CCN(Cc1ccccc1)C2 [Ib-22]"
  half-life at 0.5 uM: "≤ 30 min"
- MOLECULE: "Cn1c2c(c(=O)c3ccccc31)CN(Cc1ccccc1)CC2 [Compound I-1]"
  half-life at 0.5 uM: "≤ 30 min"
- MOLECULE: "CN1c2ccccc2C(O)C2CN(Cc3ccccc3)CCC21 (stereo not drawn) [Ia-1]"
  half-life at 0.5 uM: "10 to 30 min"

---

experiment: Microsomal stability (intrinsic clearance study); type: in vitro ADME; conditions: rat liver microsomes, 0.5 mg/mL protein; read-out: Microsomal stability (T½ min) Rat

- COMPOUND: "Cn1c2c(c(=O)c3ccccc31)CN(Cc1ccccc1)CC2 [Compound I-1]"
  half-life at 0.5 uM: "10 to 30 min"
- COMPOUND: "O=c1c2c([nH]c3cc(F)c(F)cc13)CCN(Cc1ccccc1)C2 [Ib-22]"
  half-life at 0.5 uM: "10 to 30 min"
- COMPOUND: "CN1c2ccccc2C(O)C2CN(Cc3ccccc3)CCC21 (stereo not drawn) [Ia-1]"
  half-life at 0.5 uM: "< 10 min"

---

Listed compounds paired with reported inhibition at 10 µM
Molecular target: hERG (Homo sapiens)
Construct: expressed in transfected cells
Assay: hERG inhibition, IKr current, patch clamp in HEK cells stably transfected with the hERG clone
Format: cell-based
Conditions: human, HEK cells stably transfected with hERG, pH 7.4, 10 μM; read-out: Percent Inhibition Trial I (IKr current)
Experimental: HEK cells stably transfected with the hERG clone are maintained at 37±2° C. in a 5% CO2 incubator. The cells are initially revived and grown in DMEM/F12+GlutaMAX-I medium supplemented with 9% fetal bovine serum (FBS) and antibiotics (Penicillin 100 IU/mL Streptomycin 100 μg/mL) (complete medium). […] Once the stable current is attained (at least 2-5 minutes) vehicle control is added and the current measured till the stable current is achieved. […]

- COMPOUND: "O=c1c2c([nH]c3cc(F)c(F)cc13)CCN(Cc1ccccc1)C2"
  inhibition at 10 µM, %: 23.8
- COMPOUND: "CN1c2ccccc2C(O)C2CN(Cc3ccccc3)CCC21 (stereo not drawn)"
  inhibition at 10 µM, %: 29.4
- COMPOUND: "Cn1c2c(c(=O)c3ccccc31)CN(Cc1ccccc1)CC2"
  inhibition at 10 µM, %: 39.6
